Sourced from patent US4824996A

Measurement Target: human platelet PLA2 (Homo sapiens, UniProt P14555)
Construct: The PLA2 enriched supernatant fluid is removed; from tissue; host or cells: expired human platelets from the blood bank (acid extract, 10,000 g supernatant)
Sequence (P14555 21-144): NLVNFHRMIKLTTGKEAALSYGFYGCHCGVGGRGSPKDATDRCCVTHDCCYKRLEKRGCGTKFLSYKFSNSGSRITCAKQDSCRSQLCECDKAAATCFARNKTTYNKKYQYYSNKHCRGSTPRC
Assay Method Text: in vitro assay of inhibition of human platelet PLA2 (hydrolysis of [1-14C]oleic acid labelled E. coli membrane phospholipids)
Assay type: biochemical
Method: The ability of the compounds to inhibit the activity of PLA2 enzyme is measured in the following in vitro assay. The assay is carried out as follows: E. coli, cultured to exponential growth, are sedimented for 15 minutes at 10,000 g and resuspended in sterile isotonic saline (1-3 ml). […] Cell number is determined by measuring the optical density at 550 nm ([…]=1 O.D.). The amount of radioactivity associated with cells is determined by counting a defined volume of cell suspension. […]
Reported Endpoint: inhibition at 100 µM (%)
Hi! Could you send only the number? It should be in %, unit omitted.

Below: 8 molecules and their reported inhibition at 100 µM.
1) CCCCCCCCCCCCCCCCNC(=O)OCCCN(C)C: 100
2) CCCCCCCCCCCCNC(=O)OCCCCCCN(C)C: 100
3) CCCCCCCCCCCCCC(=O)NN(C)C [Example 8, Tetradecanoic acid 2,2-dimethylhydrazide]: 55.9
4) CCCCCCCCCCCCCCCCNC(=O)NCCCN(C)C: 100
5) CCCCCCCCCCCCCC(=O)N1CC(C)NC(C)C1 (stereo not drawn): 100
6) CCCCCCNC(=O)OCCCCCCN(C)C: 11
7) CCCCCCCCCCCCCCCCNC(=O)OCCCCCCN(C)C: 100
8) CCCCCCCCCCCCCCCCS(=O)(=O)NCCCCCCCN(CC)CC: 94.4

Now examine the next entry.
For CCCCCCCCCCCCCCC(=O)NCCCN(C)C the molecule record lists inhibition at 100 µM as 100
